testSystem: SHP2^E76A protein (Homo sapiens (Human), UniProt Q06124, E76A)
Sequence (Q06124 whole entry E76A): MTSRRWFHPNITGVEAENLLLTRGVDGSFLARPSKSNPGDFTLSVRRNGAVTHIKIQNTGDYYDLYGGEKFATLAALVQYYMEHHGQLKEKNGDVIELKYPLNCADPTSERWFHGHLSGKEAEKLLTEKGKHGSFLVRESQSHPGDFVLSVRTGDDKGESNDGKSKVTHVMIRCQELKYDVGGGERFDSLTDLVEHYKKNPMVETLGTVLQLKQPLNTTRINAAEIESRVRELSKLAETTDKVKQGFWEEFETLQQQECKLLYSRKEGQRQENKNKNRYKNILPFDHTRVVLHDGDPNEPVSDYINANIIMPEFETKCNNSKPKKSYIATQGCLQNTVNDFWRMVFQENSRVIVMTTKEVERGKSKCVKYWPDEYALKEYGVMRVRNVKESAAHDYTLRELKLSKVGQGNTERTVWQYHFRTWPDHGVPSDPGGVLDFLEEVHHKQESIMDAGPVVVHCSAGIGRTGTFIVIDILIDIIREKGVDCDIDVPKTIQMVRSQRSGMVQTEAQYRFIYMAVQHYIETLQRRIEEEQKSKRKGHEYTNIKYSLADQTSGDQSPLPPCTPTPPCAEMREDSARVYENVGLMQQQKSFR
procedureDetails: SHP2 enzyme activity inhibition experiment
Assay type: biochemical
conditionSummary: SHP2 enzyme activity, Tables 1.1 and 1.2; read-out: IC50
pIC50: −log10 of the molar value.
Entries and their measured pIC50 follow.

Worked set:
smilesString | testSystem | pIC50
Cc1nccc(Sc2cnc(N3CCC4(CC3)COC[C@H]4N)n3ncnc23)c1Cl | SHP2^E76A protein (Homo sapiens (Human), UniProt Q06124, E76A) | 5.00 to 6.00
Cn1ccc2c(Sc3cnc(N4CCC5(CCC[C@H]5N)CC4)n4ccnc34)ccnc21 | SHP2^E76A protein (Homo sapiens (Human), UniProt Q06124, E76A) | > 7.00
N[C@@H]1CCCC12CCN(c1ncc(Sc3cccc(Cl)c3Cl)c3nncn13)CC2 | SHP2^E76A protein (Homo sapiens (Human), UniProt Q06124, E76A) | > 7.00
C[C@@H]1OCC2(CCN(c3ncc(Sc4cccc(Cl)c4Cl)c4nccn34)CC2)[C@@H]1N | SHP2^E76A protein (Homo sapiens (Human), UniProt Q06124, E76A) | > 7.00

# return recorded pIC50 for entry Cc1nccc(Sc2cnc(N3CCC4(CC3)CO[C@H](C)[C@H]4N)n3cnnc23)c1Cl > 7.00
